Measured pIC50 by item
test system: SK-N-BE(2)-C cells; assay: Alamar Blue cell viability assay, SK-N-BE(2)-C; format: cell-based; settings: Homo sapiens, MYCN amplified neuroblastoma cell line
pIC50: −log10 of the molar value.

Compound	Target under test	pIC50
CN1CCN(Cc2ccc(NC(=O)Cc3ccc(Oc4cc(NC(=O)C5CC5)ncn4)cc3)cc2C(F)(F)F)CC1 [WS6, reference compound]	SK-N-BE(2)-C cells	6.12
Cc1cccc(Oc2cc(N3CCC(C(=O)NCc4cccc(C(F)(F)F)c4)CC3)ncn2)c1C	SK-N-BE(2)-C cells	4.52
Cc1cccc(Oc2cc(N3CCC(C(=O)NCc4cccc(Br)c4)CC3)ncn2)c1C	SK-N-BE(2)-C cells	4.58
Cc1cccc(Oc2cc(N3CCC(C(=O)N[C@@H](C)CCc4ccccc4)CC3)ncn2)c1C	SK-N-BE(2)-C cells	4.63

====

tested on: Kelly shMYCN cells; test: Alamar Blue viability, Dox-inducible Kelly shMYCN cells; assay type: cell-based; details: Homo sapiens, 72 h, Dox (2 μg/ml) -, MYCN +, 72 h treatment

Molecule	Target under test	IC50
Cc1cccc(Oc2cc(N3CCC(C(=O)N[C@@H](C)CCc4ccccc4)CC3)ncn2)c1C [#5338]	Kelly shMYCN cells	16 µM
Cc1cccc(Oc2cc(N3CCC(C(=O)NCc4cccc(Br)c4)CC3)ncn2)c1C [#5333]	Kelly shMYCN cells	22.4 µM

====

system: MRC-5 cells; experiment: Alamar Blue cell viability assay, MRC-5 non-malignant myofibroblasts; assay type: cell-based; settings: Homo sapiens, MRC5

Compound	IC50 (µM)
CN1CCN(Cc2ccc(NC(=O)Cc3ccc(Oc4cc(NC(=O)C5CC5)ncn4)cc3)cc2C(F)(F)F)CC1 [WS6, reference compound]	1.4
Cc1cccc(Oc2cc(N3CCC(C(=O)NCc4cccc(Br)c4)CC3)ncn2)c1C [#5333]	100
Cc1cccc(Oc2cc(N3CCC(C(=O)N[C@@H](C)CCc4ccccc4)CC3)ncn2)c1C [#5338]	100
Cc1cccc(Oc2cc(N3CCC(C(=O)NCc4cccc(C(F)(F)F)c4)CC3)ncn2)c1C [#3567]	80
